These measurements were taken from patent US11377442B2.

- tested system: NR2F6 (Homo sapiens)
- Construct: expressed in transfected cells; also transient transfection
- Sequence (P10588 whole entry): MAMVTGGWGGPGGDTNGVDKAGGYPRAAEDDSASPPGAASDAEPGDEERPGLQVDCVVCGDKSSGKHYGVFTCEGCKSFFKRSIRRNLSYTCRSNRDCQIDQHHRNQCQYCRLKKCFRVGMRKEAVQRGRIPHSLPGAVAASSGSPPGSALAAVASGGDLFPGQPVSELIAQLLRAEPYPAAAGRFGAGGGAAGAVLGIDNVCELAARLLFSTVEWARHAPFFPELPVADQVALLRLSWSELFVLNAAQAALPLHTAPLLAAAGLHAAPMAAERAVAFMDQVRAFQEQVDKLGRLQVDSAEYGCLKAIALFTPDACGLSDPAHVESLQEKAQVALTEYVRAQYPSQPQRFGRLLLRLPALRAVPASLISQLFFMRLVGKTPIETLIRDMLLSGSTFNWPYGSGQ
- experiment notes: NR2F6 agonist screening, Firefly signal cmpd/DMSO
- Format: cell-based
- study conditions: 10% FBS; 40 uM
test readout: Firefly, F4/pGL4 for S/B(F4) > 3

[
  {
    "molecule": "CC(C)CCN[C@H]1CS(=O)(=O)C[C@@H]1S(=O)(=O)c1cccs1",
    "readout number": 2.3
  },
  {
    "molecule": "CC(C)OCCCN[C@H]1CS(=O)(=O)C[C@@H]1S(=O)(=O)c1ccc(Cl)cc1",
    "readout number": 3.2
  },
  {
    "molecule": "COCCN[C@H]1CS(=O)(=O)C[C@@H]1S(=O)(=O)c1cccs1",
    "readout number": 2.7
  },
  {
    "molecule": "O=S1(=O)C[C@H](NCC2CCCO2)[C@@H](S(=O)(=O)c2cccs2)C1 (stereo partly drawn)",
    "readout number": 2.3
  },
  {
    "molecule": "COCCCN[C@H]1CS(=O)(=O)C[C@@H]1S(=O)(=O)c1ccc(Cl)cc1",
    "readout number": 2.1
  },
  {
    "molecule": "O=S1(=O)C[C@H](NC2CCCCC2)[C@@H](S(=O)(=O)c2ccccc2)C1",
    "readout number": 2.7
  }
]
